biological target: Sigma intracellular receptor 2 (Rattus norvegicus); test: Displacement of [3H]DTG from sigma2 receptor in rat liver membranes at 1 uM after 120 mins by scintillation counting method relative to control; format: cell membranes
Is inhibition at least 8%? Then class 1. If not, class 0.

Past entries and their recorded results:
Molecule	Label Value
O=C(Cc1ccc(Cl)c(Cl)c1)N1CCN(Cc2cn(CCF)nn2)[C@H]2CCC[C@H](N3CCCC3)[C@H]21 (racemic)	class 0
O=C(Cc1ccc(Cl)c(Cl)c1)N1CCN(CCF)[C@H]2CCC[C@H](N3CCCC3)[C@H]21 (racemic)	class 0
CN1CCN(C(=O)Cc2ccc(Cl)c(Cl)c2)[C@H]2[C@@H]1CCC[C@@H]2N1CCCC1	class 0
CCN1CCN(C(=O)Cc2ccc(Cl)c(Cl)c2)[C@H]2[C@@H]1CCC[C@@H]2N1CCCC1 (relative stereo)	class 1

Continue with the next molecule.
Request: Decide: inhibition of CC(C)(C)OC(=O)N1CCN(C(=O)Cc2ccc(Cl)c(Cl)c2)[C@@H]2[C@@H](N3CCCC3)CCC[C@@H]21 (racemic) >= 8%?
Response: class 1

----------
Target: Sigma intracellular receptor 2 (Rattus norvegicus)
Sequence (whole entry): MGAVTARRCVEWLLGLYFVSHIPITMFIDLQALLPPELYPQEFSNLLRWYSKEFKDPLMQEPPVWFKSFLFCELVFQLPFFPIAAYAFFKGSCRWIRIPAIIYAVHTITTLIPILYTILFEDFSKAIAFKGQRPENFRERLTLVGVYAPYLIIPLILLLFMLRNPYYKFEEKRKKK
Assay: Displacement of [3H]DTG from sigma2 receptor in rat liver membranes at 1 uM after 120 mins by scintillation counting method relative to control
Type: cell membranes
Measurement Label: inhibition (%)
Answer with a number only, understood to be in %.

Record excerpt, results attached:
Compound	inhibition, %
O=C(Cc1ccc(Cl)c(Cl)c1)N1CCN(Cc2ccc(F)cc2)[C@H]2CCC[C@H](N3CCCC3)[C@H]21 (racemic)	0
O=C(Cc1ccc(Cl)c(Cl)c1)N1CCN(C(=O)COCCF)[C@H]2CCC[C@H](N3CCCC3)[C@H]21 (relative stereo)	0

Then this compound:
Request: Return reported inhibition; argument: O=C(Cc1ccc(Cl)c(Cl)c1)N1CCN[C@H]2CCC[C@H](N3CCCC3)[C@H]21 (racemic)
Response: 5
